# assay-protocol: autophagy modulators in MEF cells, primary screen, imaging, high-content, MEF GFP-LC3 (AID 463193);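 note: spot-positive cell cutoff set from DMSO-treated cells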
# condition-label: MEF GFP-LC3 puncta imaging, at 10 µM; stronger effect = higher value
Among all 190,000 compounds or so, about 1,900 (1%) were called active. For the sample, actives were picked, then their nearest neighbours and some compounds at random.
experimental-endpoint: % cells with GFP-LC3 spots (%)

compound | meas-value
C=CCNC(=O)CCCOc1cccc(C)c1 | 10.7
CCN1C(=O)/C(=C\N2CCN(c3ccccc3)CC2)SC1=S | 1.26
Cc1ccc(-c2nnc(-c3ccc(NC(=O)c4cccs4)cc3)o2)cc1 | 9.58
CCN1C(=O)/C(=C\N2CCOCC2)SC1=S | 5.71
O=C1/C(=C\c2ccsc2)NC(=S)N1c1ccccc1 | 0.432
COc1ccc(Nc2ncc(F)c(N3CCOCC3)n2)cc1 | 7.22
CCCN1CC=C2C(C#N)=C(N)C(C#N)(C#N)C(c3cc(OC)ccc3OC)C2C1 (stereo not drawn) | 99.7
CC(=O)N/C(=C/c1ccc(Cl)cc1)C(=O)NCCc1c[nH]c2ccccc12 | 1.94
CCOC(=O)CC(=O)CSc1nc(-c2ccccc2)cc(-c2ccc(Cl)cc2)c1C#N | 3.63
O=C(CSc1nc2ccccc2[nH]1)c1cccs1 | 0.463
O=C(Cc1cccc2ccccc12)Nc1ccc2oc(-c3ccccc3)nc2c1 | 7.49
CC(Sc1nc2ccccc2c(=O)n1Cc1ccco1)C(=O)c1ccccc1 (stereo not drawn) | 11.8
Cc1ccc(C(=O)/C=C/Nc2ccc(S(=O)(=O)Nc3onc(C)c3C)cc2)cc1 | 2.91
